Test system: SN12C renal
ASSAY: NCI tumour cell line growth inhibition, 48 h
RECORDED METRIC: GI50

These recorded examples may help you get a feel for the data.
{"COMPOUND": "COc1ccc(-c2ccc(-c3ccc(C(=N)N)o3)o2)cc1", "TESTED ON": "SN12C renal", "RECORDED METRIC": "GI50", "RECORDED VALUE": "2.02 µM"}
{"COMPOUND": "O=C1C(Cl)=C(NCc2ccco2)C(=O)c2ccccc21", "TESTED ON": "SN12C renal", "RECORDED METRIC": "GI50", "RECORDED VALUE": "25.9 µM"}
{"COMPOUND": "O=C1CCc2c(sc3[nH]c(=S)n(Cc4ccc(Cl)cc4)c(=O)c23)C1", "TESTED ON": "SN12C renal", "RECORDED METRIC": "GI50", "RECORDED VALUE": "0.384 µM"}
{"COMPOUND": "C[N+]1=C(/C=C\\C=C\\c2ccccc2)C(C)(C)c2ccccc21", "TESTED ON": "SN12C renal", "RECORDED METRIC": "GI50", "RECORDED VALUE": "0.863 µM"}
{"COMPOUND": "C=C1C(=O)O[C@H]2[C@H]1CC/C(Cn1cc(-c3ccccc3C(F)(F)F)nn1)=C\\CC[C@@]1(C)O[C@@H]21", "TESTED ON": "SN12C renal", "RECORDED METRIC": "GI50", "RECORDED VALUE": "2.48 µM"}
{"COMPOUND": "O=c1cccccc1[O-].O=c1cccccc1[O-].O=c1cccccc1[O-].[La+3]", "TESTED ON": "SN12C renal", "RECORDED METRIC": "GI50", "RECORDED VALUE": "22.3 µM"}
{"COMPOUND": "COC(=O)CC[C@H](Cc1ccccc1)NC(=O)c1csc([C@@H](C[C@H](C(C)C)N(C)C(=O)[C@@H](NC(=O)[C@H]2CCCCN2C)C(C)C)OC(C)=O)n1", "TESTED ON": "SN12C renal", "RECORDED METRIC": "GI50", "RECORDED VALUE": "< 0.0025 µM"}
{"COMPOUND": "O=C1c2ccccc2-c2c1c1ccccc1c(=O)n2CCCn1ccnc1", "TESTED ON": "SN12C renal", "RECORDED METRIC": "GI50", "RECORDED VALUE": "1.66 µM"}

Batch of 3 compounds: report GI50 for each.
1. Cc1ncc(C(=O)Nc2ccc(CN3CCN(C)CC3)c(C(F)(F)F)c2)cc1C#Cc1cnc(N)cc1C#N
2. O=C1C(=O)c2cccnc2-c2ncccc21
3. C=C1CC2(OC1=O)C(=O)Nc1ccccc12 (stereo unspecified)

1. 0.305 µM
2. 0.25 µM
3. 3.74 µM
